testDescription: melting temperature; fluorescence melt of hairpins on a sequencing array, two-state fit, raised by 9.35 °C to match UV melts
experimentalSetup: sodium 0.088 M
testReadout: Tm (°C)

>  <sequence>
GAATTCGGAAACGAACTC ((.((((....)))).))

>  <testReadout>
Tm

>  <observedResult>
33.7

$$$$
>  <sequence>
GATCTCATGGGAGATC ((((((....))))))

>  <testReadout>
Tm

>  <observedResult>
54

$$$$
>  <sequence>
GTGCATGGAAACATGCGC (.(((((....))))).)

>  <testReadout>
Tm

>  <observedResult>
56.9

$$$$
>  <sequence>
GAGTGCGGAAACGTACTC ((((.((....)).))))

>  <testReadout>
Tm

>  <observedResult>
53.9

$$$$
>  <sequence>
GTAGCCGAAAGGCGCTAC ((((((....)))..)))

>  <testReadout>
Tm

>  <observedResult>
42.8

$$$$
>  <sequence>
GATCAAATTATTGATC ((((((....))))))

>  <testReadout>
Tm

>  <observedResult>
41.4

$$$$
>  <sequence>
GATCTGAATACAGATC ((((((....))))))

>  <testReadout>
Tm

>  <observedResult>
47.7

$$$$
>  <sequence>
GCGGACGCCGC ((((...))))

>  <testReadout>
Tm

>  <observedResult>
58.3

$$$$
>  <sequence>
GCGCCGCGAAAGCTACGC (((..((....))..)))

>  <testReadout>
Tm

>  <observedResult>
53.5

$$$$
>  <sequence>
GCCACCGGAAACGGTAGC ((.((((....)))).))

>  <testReadout>
Tm

>  <observedResult>
48.1

$$$$
>  <sequence>
GCACCCGAAAGGGGATGC ((((((....)))..)))

>  <testReadout>
Tm

>  <observedResult>
50.8

$$$$
>  <sequence>
GATCACTTTTGTGATC ((((((....))))))

>  <testReadout>
Tm

>  <observedResult>
59

$$$$
>  <sequence>
GATCGTCCCACGATC ((((((...))))))

>  <testReadout>
Tm

>  <observedResult>
57.6

$$$$
>  <sequence>
GGGTGCCGAAAGGCCCC (((.(((....))))))

>  <testReadout>
Tm

>  <observedResult>
67.2

$$$$
>  <sequence>
GGCTTCGAAAGAAAAGCC ((((((....)))..)))

>  <testReadout>
Tm

>  <observedResult>
46.6

$$$$
>  <sequence>
GTTGGCGAAAGCCGAAC ((((((....))).)))

>  <testReadout>
Tm

>  <observedResult>
50.5

$$$$
>  <sequence>
GTCCTTGGAAACAGGGAC ((((.((....)).))))

>  <testReadout>
Tm

>  <observedResult>
46.4

$$$$
>  <sequence>
GATGCACCGAAAGGTATC (((..(((....))))))

>  <testReadout>
Tm

>  <observedResult>
29

$$$$
>  <sequence>
GCTCGGCGAAAGCCACGC ((..(((....)))..))

>  <testReadout>
Tm

>  <observedResult>
43.3

$$$$
>  <sequence>
GTGGATCGAAAGATACAC (((.(((....))).)))

>  <testReadout>
Tm

>  <observedResult>
55.9

$$$$
>  <sequence>
GGTGCTGGAAACGGCACC (((((.(....).)))))

>  <testReadout>
Tm

>  <observedResult>
62.9

$$$$
>  <sequence>
GTTCTCGAAAGAGGTAAC ((((((....)))..)))

>  <testReadout>
Tm

>  <observedResult>
22.7

$$$$
>  <sequence>
GACACGACGAAAGTCGTC (((..(((....))))))

>  <testReadout>
Tm

>  <observedResult>
34.4

$$$$
>  <sequence>
GATCTTAAAGAAGATC ((((((....))))))

>  <testReadout>
Tm

>  <observedResult>
34.8

$$$$
>  <sequence>
GTGGAGGGAAACCTCCAC (((((((....)))))))

>  <testReadout>
Tm

>  <observedResult>
66.5

$$$$
